- Test system: HL-60(TB) leukemia
- Protocol notes: NCI tumour cell line growth inhibition, 48 h
Metric: TGI

[[record]]
compound = "COC(=O)c1c2c(c(C)[n+]([O-])c1C)C(=O)C(NCc1cccc(Cl)c1)=CC2=O"
metric = "TGI"
data_value = "3.55 µM"

[[record]]
compound = "COC(=O)c1nc(-c2ccc(Cl)c(Cl)c2)nc2ccc(Cl)cc12"
metric = "TGI"
data_value = "> 100 µM"

[[record]]
compound = "COC(=O)c1cc2cc(-c3ccc(OC)cc3)cnc2[nH]1"
metric = "TGI"
data_value = "> 28.1 µM"

[[record]]
compound = "CCN(CCCNC(=O)Cc1cc(=O)oc2cc(N(C)C)ccc12)CCNc1ccnc2cc(Cl)ccc12"
metric = "TGI"
data_value = "44.2 µM"

[[record]]
compound = "Cc1cc([N+](=O)[O-])c(C)c2c1[nH]c1ccc(O)cc12"
metric = "TGI"
data_value = "63 µM"

[[record]]
compound = "CC1CCC(C(C)C2C(O)CC3C4CC=C5CC(O)CCC5(C)C4CCC32C)NC1 (centres undefined)"
metric = "TGI"
data_value = "52.8 µM"

[[record]]
compound = "O=C(/C=C\\c1ccc(-c2ccccc2)cc1)c1cccs1"
metric = "TGI"
data_value = "> 31 µM"

[[record]]
compound = "C=C(C)[C@@H]1C/C=C(\\COC(=O)[C@H](OC(C)=O)C(NC(=O)c2ccccc2)c2ccccc2)CC[C@H]2O[C@]2(C)CC/C=C(\\C)CC1 (some centres undefined)"
metric = "TGI"
data_value = "> 50 µM"

[[record]]
compound = "COc1ccc(CN2CCc3c(Sc4ccccc4)nc(N)nc3C2=O)c(OC)c1"
metric = "TGI"
data_value = "5.32 µM"


Values from PubChem BioAssay (NCI)
